- test: Peptide stability in rat plasma
- Assay type: in vitro ADME
- test_settings: rat plasma (NaHeparin)
Peptide text beside a SMILES is read from it.
result_type: half-life (h)
Report the figure in h without appending any unit label.

Quickly give me recorded half-life for CC(=O)N[C@@H](CO)C(=O)N[C@@H](Cc1c[nH]cn1)C(=O)N[C@@H](C)C(=O)N[C@H](C(=O)N[C@@H](C)C(=O)N[C@@H](CO)C(N)=O)C(C)C [HAV4] (Ac-SHAVAS-NH2) 2.4
